Would you mind telling me the reported LogP of each entry?
- CONDITION PARAMETERS: method [a]: LC-MS at pH 2.7, 0.1% formic acid in water / acetonitrile gradient

LogP for Clc1cnccc1CC1(C2(Cl)CCCC2)CO1 (centres unmarked) is 3.42^[a]

LogP for CC(CF)(CF)C1(Cc2cc(Cl)ncc2F)CO1 (centres unmarked) is 2.69^[a]

LogP for FC(F)(F)c1cnccc1CC1(C2(Cl)CC2)CO1 (centres unmarked) is 3.04^[a]

LogP for Fc1cnc(Cl)cc1CC1(C2(Cl)CC2)CO1 (centres unmarked) is 3.15^[a]

LogP for O=C(Cc1ccc2ccccc2n1)C1(Cl)CC1 is 3.39^[a]

LogP for ClC1(C2(Cc3ccc4ccccc4n3)CO2)CC1 (centres unmarked) is 1.74^[a]

LogP for Fc1cnccc1CC1(C2(Cl)CC2)CO1 (centres unmarked) is 2.13^[a]

LogP for CC(CF)(CF)C1(Cc2ccnc(Cl)c2)CO1 (centres unmarked) is 2.38^[a]

LogP for OC(Cc1ccncc1Cl)(Cn1cncn1)C1(F)CC1 (centres unmarked) is 1.29^[a]

LogP for CC(C)(Cl)C1(Cc2ccncc2Cl)CO1 (centres unmarked) is 2.57^[a]

LogP for ClC1(C2(Cc3ccncn3)CO2)CC1 (centres unmarked) is 1.44^[a]

---

- System: Pyricularia oryzae
- Assay type: in vivo
- CONDITION PARAMETERS: 500 ppm of active ingredient; rice, preventive; evaluated 8 days after inoculation
REPORTED METRIC: Eff. % (%)
Lab book: enter the figure in %, no units written.

Case OC(Cc1cc(Cl)ncc1Cl)(Cn1cncn1)C1(Cl)CC1 (stereo not drawn) , Pyricularia oryzae, Eff. % recorded as 100

Case OC(Cc1nccnc1Br)(Cn1cncn1)C1(Cl)CC1 (racemic) , Pyricularia oryzae, Eff. % recorded as 80

Case OC(Cc1cc(F)ncc1Cl)(Cn1cncn1)C1(F)CC1 (racemic) , Pyricularia oryzae, Eff. % recorded as 86

Case OC(Cc1nccnc1I)(Cn1cncn1)C1(Cl)CC1 (stereo not drawn) , Pyricularia oryzae, Eff. % recorded as 78

Case OC(Cc1ccnc(Cl)c1)(Cn1cncn1)C1(Cl)CC1 (stereo not drawn) , Pyricularia oryzae, Eff. % recorded as 80

Case OC(Cc1ccncc1C(F)(F)F)(Cn1cncn1)C1(Cl)CC1 (racemic) , Pyricularia oryzae, Eff. % recorded as 100

Case OC(Cc1ccncc1Cl)(Cn1cncn1)C1(F)CC1 (stereo not drawn) , Pyricularia oryzae, Eff. % recorded as 100

Case OC(Cc1cccnc1Cl)(Cn1cncn1)C1(Cl)CC1 (single isomer, unassigned) [Example I-95] , Pyricularia oryzae, Eff. % recorded as 100

Case OC(Cc1cccnc1Cl)(Cn1cncn1)C1(Cl)CC1 (single isomer, unassigned) [Example I-94] , Pyricularia oryzae, Eff. % recorded as 70

Case OC(Cc1ccncc1F)(Cn1cncn1)C1(F)CC1 (stereo not drawn) , Pyricularia oryzae, Eff. % recorded as 100

Case OC(Cc1ccnc2ccccc12)(Cn1cncn1)C1(Cl)CC1 (stereo not drawn) , Pyricularia oryzae, Eff. % recorded as 89

Case OC(Cc1cc(Cl)nnc1Cl)(Cn1cncn1)C1(Cl)CC1 (stereo not drawn) , Pyricularia oryzae, Eff. % recorded as 78

---

- CONDITION PARAMETERS: pH 2.7
Marks after values point to notes of the source that are not given here.
REPORTED METRIC: LogP

LogP for OC(Cc1cccnc1F)(Cn1cncn1)C1(Cl)CC1 (stereo not shown) is 1.64^[a]

LogP for OC(Cc1ccncn1)(Cn1cncn1)C1(Cl)CC1 (stereo not shown) is 1.10^[a]

LogP for OC(Cc1ccnc(Cl)c1F)(Cn1cncn1)c1cccnc1Cl (stereo not shown) is 1.54^[a]

LogP for OC(Cc1cc(Cc2ccc(Cl)c(Cl)n2)cc(Cl)n1)(Cn1cncn1)C1(Cl)CC1 (stereo not shown) is 3.58^[a]

LogP for OC(Cc1ccccc1F)(Cc1ccncc1F)Cn1cncn1 (stereo not shown) is 1.63^[a]

LogP for OC(Cc1cc(F)ncc1Cl)(Cn1cncn1)C1(Cl)CC1 (racemic) is 2.30^[a]

LogP for OC(Cc1ccnc(Cl)c1)(Cn1cncn1)C1(Cl)CC1 (stereo not shown) is 1.76^[a]

LogP for OC(Cc1ccc(Cl)cn1)(Cn1cncn1)C1(Cl)CC1 (racemic) is 2.23^[a]

LogP for OC(Cc1ccc(F)cc1)(Cc1ccncc1Cl)Cn1cncn1 (racemic) is 1.93^[a]

LogP for OC(Cc1cc(Cl)ncc1F)(Cn1cncn1)c1cccnc1Cl (stereo not shown) is 1.57^[a]

LogP for OC(Cc1cccc(Cl)c1)(Cc1ccncc1Cl)Cn1cncn1 (stereo not shown) is 2.27^[a]

LogP for OC(Cc1nccnc1Cl)(Cn1cncn1)C1(Cl)CC1 (stereo not shown) is 1.86^[a]

LogP for OC(Cc1ccncc1F)(Cn1cncn1)C1(F)CC1 (stereo not shown) is 0.91^[a]

LogP for OC(Cc1ccnc2ccccc12)(Cn1cncn1)C1(Cl)CC1 (stereo not shown) is 1.00^[a]

LogP for OC(Cc1ccnc(Cl)c1)(Cn1cncn1)c1cccnc1Cl (stereo not shown) is 1.35^[a]

LogP for OC(Cc1ccnc(Cl)c1)(Cc1ccccc1F)Cn1cncn1 (stereo not shown) is 2.06^[a]

LogP for OC(Cc1cc(F)ncc1Cl)(Cn1cncn1)C1(F)CC1 (racemic) is 1.77^[a]

LogP for OC(Cc1ccc(Cl)c(Cl)n1)(Cn1cncn1)C1(Cl)CC1 (stereo not shown) is 2.66^[a]

LogP for OC(Cc1cc(Cl)nc2ccccc12)(Cn1cncn1)C1(Cl)CC1 (stereo not shown) is 2.69^[a]

---

- CONDITION PARAMETERS: pH 2.7
Marks after values point to notes of the source that are not given here.
REPORTED METRIC: LogP

LogP for OC(Cc1nccnc1I)(Cn1cncn1)C1(Cl)CC1 (stereo not shown) is 2.07^[a]

LogP for OC(Cc1ccccc1F)(Cc1cc(Cl)ncc1F)Cn1cncn1 (racemic) is 2.34^[a]

LogP for OC(Cc1ccnc(Cl)c1Cl)(Cn1cncn1)C1(Cl)CC1 (racemic) is 2.39^[a]

LogP for CC(CF)(CF)C(O)(Cc1ccncc1F)Cn1cncn1 (stereo not shown) is 1.27^[a]

LogP for OC(Cc1ccnc(Cl)c1F)(Cn1cncn1)C1(Cl)CC1 (stereo not shown) is 2.02^[a]

LogP for CC1(C(O)(Cc2ccnnc2Cl)Cn2cncn2)CC1 (stereo not shown) is 1.28^[a]

LogP for CC(CF)(CF)C(O)(Cc1ccncc1Cl)Cn1cncn1 (stereo not shown) is 1.54^[a]

LogP for OC(Cc1cccnc1Cl)(Cn1cncn1)C1(Cl)CC1 (single isomer, unassigned) [Example I-94] is 1.81^[a]

LogP for OC(Cc1ccncc1F)(Cn1cncn1)c1ccc(Cl)nc1 (stereo not shown) is 0.99^[a]

LogP for OC(Cc1ccncc1Cl)(Cn1cncn1)C1CCC1 (racemic) is 1.46^[a]

LogP for OC(Cc1cc(Cl)ncc1F)(Cn1cncn1)C1(F)CC1 (stereo not shown) is 1.66^[a]

LogP for OC(Cc1ccc(Cl)nc1Cl)(Cn1cncn1)C1(Cl)CC1 (stereo not shown) is 2.55^[a]

LogP for CC(C)(Oc1ccc(Cl)cc1)C(O)(Cc1ccncc1Cl)Cn1cncn1 (racemic) is 2.84^[a]

LogP for OC(Cc1cccnc1Cl)(Cn1cncn1)C1(F)CC1 (stereo not shown) is 1.42^[a]

LogP for OC(Cc1nc(Cl)ccc1Cl)(Cn1cncn1)C1(Cl)CC1 (stereo not shown) is 2.73^[a]

LogP for CC(C)(CCl)C(O)(Cc1ccncc1Cl)Cn1cncn1 (racemic) is 1.76^[a]

LogP for OC(Cc1cccc(Cl)n1)(Cn1cncn1)C1(Cl)CC1 (stereo not shown) is 2.18^[a]

LogP for Cc1cccc2cc(CC(O)(Cn3cncn3)C3(Cl)CC3)c(Cl)nc12 (racemic) is 3.53^[a]

LogP for COc1nccnc1CC(O)(Cn1cncn1)C1(Cl)CC1 (racemic) is 1.88^[a]

---

Would you mind telling me the reported LogP of each entry?
- CONDITION PARAMETERS: method [a]: LC-MS at pH 2.7, 0.1% formic acid in water / acetonitrile gradient

LogP for O=C(Cc1cc(Cl)nc(Cl)c1)C1(Cl)CC1 [Example V-5] is 3.25^[a]

LogP for Fc1cnc(Cl)cc1CC1(C2(F)CC2)CO1 (stereo not shown) [XII-13] is 2.57^[a]

LogP for O=C(Cc1cnc2ccccc2c1)C1(Cl)CC1 [Example V-13] is 1.60^[a]

LogP for CC1(C(=O)Cc2ccncc2Cl)CC1 [Example V-11] is 1.85^[a]

LogP for O=C(Cc1cccnc1F)C1(Cl)CC1 [Example V-16] is 2.07^[a]

LogP for CC(CF)(CF)C1(Cc2cc(F)ncc2Cl)CO1 (stereo not shown) [XII-22] is 2.84^[a]

LogP for Clc1cc(CC2(C3(Cl)CC3)CO2)cc(Cl)n1 (stereo not shown) [XII-24] is 3.80^[a]

LogP for Clc1cncc(Cl)c1CC1(C2(Cl)CC2)CO1 (stereo not shown) [XII-32] is 3.68^[a]

LogP for O=C(Cc1ncccc1Cl)C1(Cl)CC1 [Example V-2] is 2.40^[a]

LogP for Fc1c(CC2(C3(Cl)CC3)CO2)ccnc1Cl (stereo not shown) [XII-26] is 3.11^[a]

LogP for CC1(C(O)(Cc2cccnc2Cl)Cn2cncn2)CC1 (stereo not shown) [Example I-8] is 1.73^[a]

LogP for O=C(Cc1ccncc1Cl)C1(F)CC1 [Example V-7] is 1.76^[a]

LogP for O=C(Cc1cccnc1Cl)C1(c2ccccc2)CC1 [Example V-10] is 3.00^[a]

LogP for FC1(C2(Cc3ccncc3Cl)CO2)CC1 (stereo not shown) [XII-19] is 2.06^[a]

LogP for Clc1cnc(Cl)c(CC2(C3(Cl)CC3)CO2)c1 (stereo not shown) [XII-41] is 3.87^[a]

LogP for CC1(C(=O)Cc2ccncc2Cl)CCCCC1 [Example V-12] is 3.23^[a]

LogP for Clc1ccnc(Cl)c1CC1(C2(Cl)CC2)CO1 (stereo not shown) [XII-40] is 3.53^[a]

LogP for Fc1cc(CC2(C3(Cl)CC3)CO2)c(Cl)cn1 (stereo not shown) [XII-20] is 3.41^[a]

LogP for Clc1cc(CC2(C3(Cl)CC3)CO2)ccn1 (stereo not shown) [XII-11] is 2.80^[a]

These entries and their values trace back to patent US9822099B2.
